Test system Mast/stem cell growth factor receptor Kit (Homo sapiens), pIC50 listed for each of the compounds.
pIC50: −log10 of the molar value.
REPORTED ENDPOINT: pIC50

| RECORD SMILES | QUANTITATIVE READOUT |
| --- | --- |
| COc1cccc(Nc2nccc(N(C)c3ccc4cn(C)nc4c3)n2)c1 | 7.11 |
| COc1cccc(Nc2nccc(N(C)c3ccc4c(C)n(C)nc4c3)n2)c1 | 7.14 |
| Cc1c2ccc(N(C)c3ccnc(Nc4cccc(Br)c4)n3)cc2nn1C | 7.01 |
| CN(c1ccc2cn(C)nc2c1)c1ccnc(Nc2cccc(Cl)c2)n1 | 7.14 |

Reference source for all entries: ChEMBL document CHEMBL3112549
